# GI50 per entry for HCT-15

{"molecule": "COc1cc2c(c(OC)c1OC)-c1ccc(SC)c(=O)cc1C(CO)C2 (stereo unspecified)", "GI50": "0.227 µM"}
{"molecule": "CC(=O)c1cccc(NC(=O)C(=O)NNc2nnc(S)n2N)c1", "GI50": "4.9 µM"}
{"molecule": "CC1(C)C=[N+]([O-])C(C)(C)N1", "GI50": "> 100 µM"}
{"molecule": "CCOC(=O)c1cn(C)nc1N/C(C)=C\\C(=O)c1ccccc1", "GI50": "> 100 µM"}
{"molecule": "O=CC1=CCC2c3[nH]c4ccccc4c3CCN2C1 (stereo unspecified)", "GI50": "68.1 µM"}
{"molecule": "NC(CCOCCP(=O)(O)CCOCCC(N)C(=O)O)C(=O)O (stereo unspecified)", "GI50": "> 100 µM"}
{"molecule": "CCN(CC)CCOC(=O)Cc1cccc2c(=O)cc(-c3ccccc3)oc12", "GI50": "18.5 µM"}
{"molecule": "COc1ccc(-c2oc3cc(OC)c(OC)c(OC)c3c(=O)c2OC)cc1OC", "GI50": "> 100 µM"}
{"molecule": "CC(C)(C)OC/C=C(\\Br)CO", "GI50": "> 100 µM"}
{"molecule": "CC1CNC(c2ccc(COc3ccc(C4=NC(C)CN4)cc3)cc2)=N1 (stereo unspecified)", "GI50": "> 100 µM"}
{"molecule": "c1csc(-c2ccc(-c3ccc(-c4ccc(-c5cccs5)s4)s3)s2)c1", "GI50": "> 100 µM"}
